Target protein (sequence): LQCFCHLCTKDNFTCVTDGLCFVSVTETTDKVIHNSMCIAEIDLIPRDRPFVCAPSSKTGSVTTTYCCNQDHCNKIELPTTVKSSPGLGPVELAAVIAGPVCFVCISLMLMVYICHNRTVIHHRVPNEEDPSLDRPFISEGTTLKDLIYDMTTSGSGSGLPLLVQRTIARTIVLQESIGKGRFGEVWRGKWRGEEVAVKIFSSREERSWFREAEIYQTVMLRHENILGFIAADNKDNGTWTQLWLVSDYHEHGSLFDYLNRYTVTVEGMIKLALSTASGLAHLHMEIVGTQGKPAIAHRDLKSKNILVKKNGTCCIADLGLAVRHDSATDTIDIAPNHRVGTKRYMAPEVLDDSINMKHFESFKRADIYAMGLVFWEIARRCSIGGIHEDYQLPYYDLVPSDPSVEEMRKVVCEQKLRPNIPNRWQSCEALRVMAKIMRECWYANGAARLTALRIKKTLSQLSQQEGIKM
pIC50: −log10 of the molar value.
property: pIC50

Fc1ccc(-c2nc(-c3c(F)cccc3Br)[nH]c2-c2ccncc2)cc1	7.96
COc1cccc(OC)c1-c1nc(-c2ccc(F)cc2)c(-c2ccncc2)[nH]1	6.13

A. Fc1ccc(-c2nc(-c3c(F)cccc3I)[nH]c2-c2ccncc2)cc1
B. O=[N+]([O-])c1cccc(Cl)c1-c1nc(-c2ccc(F)cc2)c(-c2ccncc2)[nH]1
Parameter check: reported pIC50 is higher for which label, A or B ? Indicate which entry you chose by stating its label. B
